test system: OVCAR-4 ovarian; assay: NCI tumour cell line growth inhibition, 48 h
Measured GI50, listed per entry for reference.

Before answering, review these 5 worked examples.
1) Fc1ccc(-c2ncn(C3CCNCC3)c2-c2ccnc(Oc3ccc(F)c(F)c3)n2)cc1 ... 5.91 µM
2) COc1ccc(/C=C2\CC(C)CC3C2=NN(C(C)=O)C3c2ccc(OC)cc2)cc1 (stereo not drawn) ... 12.2 µM
3) Cc1cc(O)c(C2=NN(c3ccc(S(N)(=O)=O)cc3)C(c3ccc(N(C)C)cc3)C2)c(C)c1Cl (stereo not drawn) ... 13.3 µM
4) Nc1nc(Cl)cc(OCC2(CO)CC(OCc3ccccc3)C2)n1 (stereo not drawn) ... 47.9 µM
5) COC(=O)Nc1nc2ccc(C(=O)c3ccc(N(C)C4COC4)cc3)cc2[nH]1 ... 2.85 µM

Query for OVCAR-4 ovarian: what GI50 does the record show for Cc1nccc2c3ccc(OCc4cn(-c5ccc(Cl)cc5)nn4)cc3n(CCCc3ccccc3)c12 ?
4.34 µM

Lookup: GI50 / OVCAR-4 ovarian / CS(=O)(=O)CCNCc1ccc(-c2ccc3ncnc(Nc4ccc(OCc5cccc(F)c5)c(C(F)(F)F)c4)c3c2)o1
3.65 µM

Which measured GI50 belongs to O=[N+]([O-])c1ccccc1NC1c2ccccc2Oc2ccccc21 , tested on OVCAR-4 ovarian?
8.21 µM
